# log10 of IC50 per entry for MPO (purified from HL60 cells) (Homo sapiens (Human))
Would you kindly interpret these values as log10 of IC50 expressed in nM?

# compound, log10 of IC50
measured = [
    ("O=c1[nH]c(=S)n(Cc2ccccc2[C@H]2C[C@@H](C(F)F)CCN2)c2cc[nH]c12 (single isomer, unassigned) [Example 19b]", 0.11),
    ("O=c1[nH]c(=S)n(Cc2ccc(Cl)cc2[C@H]2CCCCN2)c2cc[nH]c12 (single isomer, unassigned) [Example 2b]", 0.56),
    ("O=c1[nH]c(=S)n(Cc2ccccc2[C@H]2C[C@H](C(F)(F)F)CCN2)c2cc[nH]c12 (stereo in doubt) [Example 17a]", 1.22),
    ("O=c1[nH]c(=S)n(Cc2cccc3c2CNCC3)c2cc[nH]c12 [Example 23]", 1.00),
    ("O=c1[nH]c(=S)n(Cc2ccccc2C2CCNCC2)c2cc[nH]c12 [Example 30]", 1.46),
]

Return log10 of IC50 measured with MPO (purified from HL60 cells) (Homo sapiens (Human)) given this compound: O=c1[nH]c(=S)n(Cc2ccccc2[C@H]2C[C@@H](C(F)(F)F)CCN2)c2nc[nH]c12 [Example 13a]
Sequence (P05164 49-745): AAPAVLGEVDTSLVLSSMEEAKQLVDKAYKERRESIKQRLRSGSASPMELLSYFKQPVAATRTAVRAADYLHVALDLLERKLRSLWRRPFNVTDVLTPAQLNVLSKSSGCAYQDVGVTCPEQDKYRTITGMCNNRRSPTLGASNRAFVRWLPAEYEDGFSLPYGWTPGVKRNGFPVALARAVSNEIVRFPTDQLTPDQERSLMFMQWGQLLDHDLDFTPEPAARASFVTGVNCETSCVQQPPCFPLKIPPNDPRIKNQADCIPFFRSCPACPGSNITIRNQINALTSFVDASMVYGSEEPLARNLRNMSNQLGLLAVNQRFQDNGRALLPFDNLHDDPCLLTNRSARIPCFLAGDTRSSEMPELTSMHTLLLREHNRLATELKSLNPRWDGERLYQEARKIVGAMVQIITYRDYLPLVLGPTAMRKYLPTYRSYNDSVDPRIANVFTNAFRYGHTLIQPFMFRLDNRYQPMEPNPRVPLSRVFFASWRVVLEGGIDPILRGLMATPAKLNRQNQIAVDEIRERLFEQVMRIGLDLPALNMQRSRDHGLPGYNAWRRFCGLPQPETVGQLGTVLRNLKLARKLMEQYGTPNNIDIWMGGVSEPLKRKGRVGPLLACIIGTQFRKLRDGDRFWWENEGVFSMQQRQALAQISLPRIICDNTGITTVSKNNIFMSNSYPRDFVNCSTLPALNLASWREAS
1.20

Next compound up: O=c1[nH]c(=S)n(Cc2ccccc2[C@H]2C[C@H](C(F)(F)F)CCN2)c2nc[nH]c12 (single isomer, unassigned) [Example 18a]
1.75

Value source: patent US20240166642A1
